Assay: Inhibition of bovine pancreas chymotrypsin using Suc-AAPF-AMC as substrate measured for 30 mins by fluorescence assay
Parameters: species or system Bos taurus
Non-standard residues stand in square brackets, D forms with d. Residues, ends and D or L forms follow the SMILES beside them. *: point of attachment. X4 = CC1(C)[C@@H]2C[C@H]1[C@]1(C)OB([C@@H](CCCBr)N*)O[C@@H]1C2; dboroNva(5-Br) = OB(O)[C@@H](CCCBr)N*; dboroPhe = OB(O)[C@@H](Cc1ccccc1)N*; Benzoyl(4-I) = O=C(c1ccc(I)cc1)*; X2 = CC(C)C[C@@H](N*)B(O)O; Nle = CCCC[C@H](N)C(=O)O; Cbz = O=C(OCc1ccccc1)*; Ahx = NCCCCCC(=O)O
Class membership depends on Ki alone; the intervals are category 1 (below 40 nM), category 2 (40 nM to below 300 nM), category 3 (300 nM or more)

IN: Lab log: CCCC[C@H](NC(=O)[C@H](CCC(N)=O)NC(=O)[C@H](CO)NC(=O)[C@H](Cc1ccccc1)NC(=O)CCCCCNC(=O)c1ccc(I)cc1)C(=O)N[C@H](CCCBr)B(O)O ({Benzoyl(4-I)-Ahx}-FSQ[Nle]-{dboroNva(5-Br)}) — assign Ki category
OUT: category 3

IN: Lab log: CCCC[C@H](NC(=O)[C@H](CCCCN)NC(=O)[C@H](CO)NC(=O)[C@H](CO)NC(=O)OCc1ccccc1)C(=O)N[C@H](CCCBr)B(O)O (Cbz-SSK[Nle]-{dboroNva(5-Br)}) — assign Ki category
OUT: category 2

IN: Lab log: CCCC[C@H](NC(=O)[C@H](CCCCN)NC(=O)[C@H](CO)NC(=O)[C@H](CO)NC(=O)OCc1ccccc1)C(=O)N[C@H](Cc1ccccc1)B(O)O (Cbz-SSK[Nle]-dboroPhe) — assign Ki category
OUT: category 1

IN: Lab log: CCCC[C@H](NC(=O)[C@H](CCC(N)=O)NC(=O)[C@H](CO)NC(=O)[C@H](CO)NC(=O)CCCCCN)C(=O)N[C@H](CC(C)C)B(O)O (H-[Ahx]SSQ[Nle]-X2) — assign Ki category
OUT: category 2

IN: Lab log: "CCCC[C@H](NC(=O)[C@H](CCC(N)=O)NC(=O)[C@H](CO)NC(=O)CCCCCN)C(=O)N[C@H](Cc1ccccc1)B(O)O" — assign Ki category
OUT: category 1

IN: Lab log: CCCC[C@H](NC(=O)[C@H](CCC(N)=O)NC(=O)[C@H](CO)NC(=O)[C@H](Cc1ccccc1)NC(=O)CCCCCN)C(=O)N[C@H](CCCBr)B(O)O (H-[Ahx]FSQ[Nle]-{dboroNva(5-Br)}) — assign Ki category
OUT: category 3

IN: Lab log: "CCCC[C@H](NC(=O)[C@H](CCC(N)=O)NC(=O)[C@H](CO)NC(=O)CCCCCN)C(=O)N[C@H](CCCBr)B(O)O" — assign Ki category
OUT: category 2

IN: Lab log: CCCC[C@H](NC(=O)[C@H](CCC(N)=O)NC(=O)[C@H](CO)NC(=O)[C@H](Cc1ccccc1)NC(=O)CCCCCN)C(=O)N[C@H](Cc1ccccc1)B(O)O (H-[Ahx]FSQ[Nle]-dboroPhe) — assign Ki category
OUT: category 1

IN: Lab log: CCCC[C@H](NC(=O)[C@H](CCC(N)=O)NC(=O)[C@H](CO)NC(=O)[C@H](C)NC(=O)CCCCCN)C(=O)N[C@H](CCCBr)B(O)O (H-[Ahx]ASQ[Nle]-{dboroNva(5-Br)}) — assign Ki category
OUT: category 2

IN: Lab log: "CCCC[C@H](NC(=O)[C@H](CCC(N)=O)NC(=O)[C@H](CO)NC(=O)C[C@H](Cc1ccc2ccccc2c1)NC(=O)CCCCCN)C(=O)N[C@H](Cc1ccccc1)B(O)O" — assign Ki category
OUT: category 1

IN: Lab log: "CCCC[C@H](NC(=O)[C@H](CCC(N)=O)NC(=O)[C@H](CO)NC(=O)C[C@H](Cc1ccc2ccccc2c1)NC(=O)CCCCCN)C(=O)N[C@H](CCCBr)B(O)O" — assign Ki category
OUT: category 3

IN: Lab log: CCCC[C@H](NC(=O)[C@H](CCC(N)=O)NC(=O)[C@H](CO)NC(=O)[C@H](Cc1ccccc1)NC(=O)CCCCCN)C(=O)N[C@H](CCCBr)B1O[C@@H]2C[C@H]3C[C@H](C3(C)C)[C@]2(C)O1 (H-[Ahx]FSQ[Nle]-X4) — assign Ki category
OUT: category 3

IN: Lab log: CCCC[C@H](NC(=O)[C@H](CCC(N)=O)NC(=O)[C@H](CO)NC(=O)[C@H](C)NC(=O)CCCCCN)C(=O)N[C@H](Cc1ccccc1)B(O)O (H-[Ahx]ASQ[Nle]-dboroPhe) — assign Ki category
OUT: category 1
